This section presents compounds with their documented MBC values.
# Tested on: Pseudomonas syringae pv. syringae (Pss) SM1030-14
# protocol_text: Dose-response assay (MIC/MBC) in M9 minimal broth
# assay_conditions: Pseudomonas syringae, 48 h
Report the figure in µM without appending any unit label.

CC1CCC(C(C)C)C(OC(=O)Cn2c[n+](CC(=O)OC3CC(C)CCC3C(C)C)c3ccccc32)C1 (centres unmarked): 12.5

Query (compound): CCN1/C(=C/c2ccc3ccccc3[n+]2CC)C=Cc2ccccc21 ; field requested: MBC
50

---

Listed molecules paired with reported MIC
# System: Pseudomonas syringae pv. syringae (Pss) SM1031-14
# protocol_text: Dose-response assay (MIC/MBC) in M9 minimal broth
# assay_conditions: Pseudomonas syringae, 48 h
Expressed in µM, but write only the number.

CC1CCC(C(C)C)C(OC(=O)Cn2c[n+](CC(=O)OC3CC(C)CCC3C(C)C)c3ccccc32)C1 (centres unmarked): 12.5

Form entry - test system: Pseudomonas syringae pv. syringae (Pss) SM1031-14; read-out: MIC; molecule: CCCCCCCCCCCCCCCCn1c[n+](C)c2ccccc21
6.25

Entry Cn1cc(CNCCCn2ccnc2)c(-c2ccc(Oc3ccccc3)cc2)n1 , system Pseudomonas syringae pv. syringae (Pss) SM1031-14: what MIC was measured?
200

Value wanted: MIC (Pseudomonas syringae pv. syringae (Pss) SM1031-14) of entry COc1cc(CN(C)Cc2ccccc2)ccc1OCC(O)CN1CCCCCCC1 (centres unmarked)
200

Please tell me: MIC of CCN1/C(=C/c2ccc3ccccc3[n+]2CC)C=Cc2ccccc21 , system Pseudomonas syringae pv. syringae (Pss) SM1031-14?
6.25

---

# Test system: Pseudomonas syringae pv. syringae (Pss) SM156-18
# protocol_text: Dose-response assay (MIC/MBC) in M9 minimal broth
# assay_conditions: Pseudomonas syringae, 48 h
readout_kind: MIC (µM)
Give the number; µM is assumed, so skip it.

CC1CCC(C(C)C)C(OC(=O)Cn2c[n+](CC(=O)OC3CC(C)CCC3C(C)C)c3ccccc32)C1 (centres unmarked): 12.5

Please report the recorded MIC for Cn1cc(CNCCCn2ccnc2)c(-c2ccc(Oc3ccccc3)cc2)n1 .
200

---

# Test system: Pseudomonas syringae pv. syringae (Pss) SM109-18
# protocol_text: Dose-response assay (MIC/MBC) in M9 minimal broth
# assay_conditions: Pseudomonas syringae, 48 h
Entries and their measured MBC follow.
Your reply should be a number followed by the unit it is expressed in.

Please look up its MBC: COc1cc(CN(C)Cc2ccccc2)ccc1OCC(O)CN1CCCCCCC1 (centres unmarked)
200 µM

Look up MBC: CC1CCC(C(C)C)C(OC(=O)Cn2c[n+](CC(=O)OC3CC(C)CCC3C(C)C)c3ccccc32)C1 (centres unmarked)
12.5 µM

Requested field: MBC. Item: CCN1/C(=C/c2ccc3ccccc3[n+]2CC)C=Cc2ccccc21
12.5 µM

Endpoint output: MBC of CCCCCCCCCCCCCCCCn1c[n+](C)c2ccccc21 . Value?
12.5 µM

Need MBC, item Cn1cc(CNCCCn2ccnc2)c(-c2ccc(Oc3ccccc3)cc2)n1
200 µM

---

# Test system: Pseudomonas syringae pv. syringae (Pss) SM1030-14
# protocol_text: Dose-response assay (MIC/MBC) in M9 minimal broth
# assay_conditions: Pseudomonas syringae, 48 h
Listed molecules paired with reported MBC
Answer in µM, number only, no unit symbol.

Solved cases (2 shown):
COc1cc(CN(C)Cc2ccccc2)ccc1OCC(O)CN1CCCCCCC1 (stereo not drawn): 200
CCCCCCCCCCCCCCCCn1c[n+](C)c2ccccc21: 25

--- query ---
Quick check: MBC of Cn1cc(CNCCCn2ccnc2)c(-c2ccc(Oc3ccccc3)cc2)n1 ?
200

---

# MIC annotations
# Test system: Pseudomonas syringae pv. syringae (Pss) SM156-18
# protocol_text: Dose-response assay (MIC/MBC) in M9 minimal broth
# assay_conditions: Pseudomonas syringae, 48 h

Worked examples, 2 compounds total:
CCN1/C(=C/c2ccc3ccccc3[n+]2CC)C=Cc2ccccc21: 6.25 µM
CCCCCCCCCCCCCCCCn1c[n+](C)c2ccccc21: 6.25 µM

Turning now to a further record.
So what does the record say about MIC for COc1cc(CN(C)Cc2ccccc2)ccc1OCC(O)CN1CCCCCCC1 (stereo not drawn) ?
200 µM
